method: xn = mol fraction of the nth substance listed
condition-description: 298 K; 101 kPa; x1 = 0.25
± gives the uncertainty stated by the source.
What viscosity was measured for each of the following?
Please answer using a numeric value trailed by its unit.

Study these solved cases before continuing.
CCCCCCCCCCCCCCCCCC(=O)OC + ClC(Cl)=C(Cl)Cl ... 2.62 ± 0.32 mPa·s
CCCCCCCCCCCCCCCCCC(=O)OC + C1CCCCC1 ... 2.33 ± 0.05 mPa·s
CCCCCCCCCCCCCCCCCC(=O)OC + CCCCCC ... 1.22 ± 0.03 mPa·s

For the next question, use this compound.
Look up and state reported viscosity for CCCCCCCCCCCCCCCCCC(=O)OC + ClC=C(Cl)Cl
2.09 ± 0.04 mPa·s

====

method: xn = mol fraction of the nth substance listed
condition-description: 303 K; 101 kPa; x1 = 0.2
Assign viscosity to each entry below.
One number for each entry, in mPa·s.

Answered cases to consult:
CCCCCCCCCCCCCCCCCC(=O)OC + C1CCCCC1 ... 1.86
CCCCCCCCCCCCCCCCCC(=O)OC + ClC(Cl)=C(Cl)Cl ... 2.01

Dear colleague, could you send me viscosity for each of the items below? Thanks.
1. CCCCCCCCCCCCCCCCCC(=O)OC + ClC=C(Cl)Cl
2. CCCCCCCCCCCCCCCCCC(=O)OC + CCCCCC

1. 1.6
2. 0.99

====

method: xn = mol fraction of the nth substance listed
condition-description: 303 K; 101 kPa; x1 = 0.1
endpoint: viscosity (mPa·s)
One number for each entry, in mPa·s.

Worked cases, answers included:
CCCCCCCCCCCCCCCCCC(=O)OC + ClC(Cl)=C(Cl)Cl ... 1.55
CCCCCCCCCCCCCCCCCC(=O)OC + CCCCCC ... 0.63
CCCCCCCCCCCCCCCCCC(=O)OC + C1CCCCC1 ... 1.35

Next, consider the following molecule.
Quick one: give measured viscosity for CCCCCCCCCCCCCCCCCC(=O)OC + ClC=C(Cl)Cl
0.98

====

method: xn = mol fraction of the nth substance listed
condition-description: 303 K; 101 kPa; x1 = 0.25
I'd appreciate it if you could supply viscosity values for the items below.
Give bare numbers, in mPa·s.

Please review the following examples before continuing.
CCCCCCCCCCCCCCCCCC(=O)OC + CCCCCC ... 1.13
CCCCCCCCCCCCCCCCCC(=O)OC + ClC(Cl)=C(Cl)Cl ... 2.36
CCCCCCCCCCCCCCCCCC(=O)OC + C1CCCCC1 ... 2.12

Field: next molecule
Recall and state the measured viscosity for CCCCCCCCCCCCCCCCCC(=O)OC + ClC=C(Cl)Cl .
1.9

====

Please go through the items and note down their viscosity.
method: xn = mol fraction of the nth substance listed
condition-description: 308 K; 101 kPa; x1 = 0.3
Numbers only, in mPa·s.

Give viscosity for all compounds that follow.
1. CCCCCCCCCCCCCCCCCC(=O)OC + ClC=C(Cl)Cl
2. CCCCCCCCCCCCCCCCCC(=O)OC + CCCCCC
3. CCCCCCCCCCCCCCCCCC(=O)OC + ClC(Cl)=C(Cl)Cl
4. CCCCCCCCCCCCCCCCCC(=O)OC + C1CCCCC1

[2.2, 1.21, 2.4, 2.2]

====

Exercise: for every item that follows, state its recorded viscosity.
method: xn = mol fraction of the nth substance listed
condition-description: 313 K; 101 kPa; x1 = 0.1
Answers are plain numbers, in mPa·s.

// below: answered compounds
CCCCCCCCCCCCCCCCCC(=O)OC + C1CCCCC1 ... 1.16
CCCCCCCCCCCCCCCCCC(=O)OC + ClC=C(Cl)Cl ... 0.89
CCCCCCCCCCCCCCCCCC(=O)OC + ClC(Cl)=C(Cl)Cl ... 1.39

// next entry
Consider the compound CCCCCCCCCCCCCCCCCC(=O)OC + CCCCCC . State its measured viscosity.
0.55

====

method: xn = mol fraction of the nth substance listed
condition-description: 298 K; 101 kPa; x1 = 0.1
± gives the uncertainty stated by the source.
endpoint: viscosity
Number first, unit second: that is the form wanted.

CCCCCCCCCCCCCCCCCC(=O)OC + ClC(Cl)=C(Cl)Cl ... 1.65 ± 0.2 mPa·s

Your task in this section: give viscosity for each listed record.
1. CCCCCCCCCCCCCCCCCC(=O)OC + C1CCCCC1
2. CCCCCCCCCCCCCCCCCC(=O)OC + ClC=C(Cl)Cl
3. CCCCCCCCCCCCCCCCCC(=O)OC + CCCCCC

1. 1.46 ± 0.03 mPa·s
2. 1.04 ± 0.02 mPa·s
3. 0.67 ± 0.02 mPa·s

====

method: xn = mol fraction of the nth substance listed
condition-description: 313 K; 101 kPa; x1 = 0.05
Task for the reader: assign each of the following molecules its reported viscosity.
Numbers only, in mPa·s.

Observe how each entry below is paired with its result.
CCCCCCCCCCCCCCCCCC(=O)OC + ClC=C(Cl)Cl ... 0.68
CCCCCCCCCCCCCCCCCC(=O)OC + CCCCCC ... 0.42
CCCCCCCCCCCCCCCCCC(=O)OC + ClC(Cl)=C(Cl)Cl ... 1.17

Write down viscosity measured for item CCCCCCCCCCCCCCCCCC(=O)OC + C1CCCCC1
0.99

====

method: xn = mol fraction of the nth substance listed
condition-description: 313 K; 101 kPa; x1 = 0.25
endpoint: viscosity (mPa·s)
Answers are plain numbers, in mPa·s.

Completed entries (count: 3):
CCCCCCCCCCCCCCCCCC(=O)OC + ClC(Cl)=C(Cl)Cl ... 1.97
CCCCCCCCCCCCCCCCCC(=O)OC + CCCCCC ... 0.98
CCCCCCCCCCCCCCCCCC(=O)OC + C1CCCCC1 ... 1.78

// next entry
Fill in reported viscosity for this entry: CCCCCCCCCCCCCCCCCC(=O)OC + ClC=C(Cl)Cl
1.66

====

Would you kindly list viscosity for each of these molecules?
method: xn = mol fraction of the nth substance listed
condition-description: 303 K; 101 kPa; x1 = 0.3
Answers are plain numbers, in mPa·s.

For orientation, consider the following solved cases.
CCCCCCCCCCCCCCCCCC(=O)OC + ClC(Cl)=C(Cl)Cl ... 2.63
CCCCCCCCCCCCCCCCCC(=O)OC + CCCCCC ... 1.3
CCCCCCCCCCCCCCCCCC(=O)OC + ClC=C(Cl)Cl ... 2.39

Name the recorded viscosity of the molecule listed here: CCCCCCCCCCCCCCCCCC(=O)OC + C1CCCCC1
2.45

====

condition-description: 313.15 K; 101 kPa
endpoint: viscosity (mPa·s)
Give bare numbers, in mPa·s.

Solved cases (3 shown):
[Cl-].[Cl-].[Cl-].[Cl-].[Ge+4] ... 0.516
CCCCCCCCN ... 0.9864
NCCO.O=CO ... 91

Respectfully, I request viscosity for each entry included below.
1. OCCOCCO
2. c1ccsc1

1. 14.81
2. 0.518

====

method: xn = mol fraction of the nth substance listed
condition-description: 313 K; 101 kPa; x1 = 0.15
endpoint: viscosity (mPa·s)
Answers are plain numbers, in mPa·s.

// worked examples, viscosity included
CCCCCCCCCCCCCCCCCC(=O)OC + C1CCCCC1 ... 1.34
CCCCCCCCCCCCCCCCCC(=O)OC + CCCCCC ... 0.69

Now consider the entry below.
Tell me viscosity reported for CCCCCCCCCCCCCCCCCC(=O)OC + ClC(Cl)=C(Cl)Cl
1.47
